target: T1, DPYSL4 peptide complexed with HLA-A*02:01 on T2 cells (human); assay: flow cytometry, peptide-loaded T2 cells;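 note: binding of single-chain Fv antibody constructs, raised in XenoMouse, to peptide-pulsed T2 cells measured by flow cytometry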
T1 construct: whole, on cells
Measured quantity: Signal/background
// keep it numeric: no unit symbol after the value

Below, 6 binders whose answers are already recorded.
Binder: 18093-B11 (scFv, scFv in bacterial lysate, detected with anti-Flag M2) scFv: EVQLLESGGGLVKPGGSLRLSCAASGFTFSDYYMSWIRQAPGKGLEWVSYISKSGSTIYYADSVKGRFTISRDNAKNSLYLQMNSLRAEDTAVYYCATYNYGHFDYWGQGTLVTVSSGGGGSGGGGSGGGGSELVLTQPPSVSVAPGQTARITCGGNNIGSKSVHWYQQKPGQAPVLVVYDDSDRPSGIPERFSGSNSGNTATLTISRVEAGDEADYYCQVWDSSSDHHVVFGGGTKLTVL
Signal/background: 1
//
Binder: 18181-G10 (scFv, scFv in bacterial lysate, detected with anti-Flag M2) scFv: EVQLLESGPGLVKPSQTLSLTCTVSGDSISSNPYYWSWIRQLPGKGLEWIGYISYSGSTFYNPSLKSRVTISVDTSKNQFSLNLTSVTAADTAVYYCARDRLWFGVLNYYYGMDVWGLGTTVTVSSGGGGSGGGGSGGGGSELVMTQSPLSLPVTPGEPASISCRSSQSLLHSTGYNYVDWYLQKPGQSPQLLIYLGSNRASGVPDRFSGSGSGTDFTLKISRVEAEDVGFYYCMQALQTPRTFGQGTKVEIK
Signal/background: 1
//
Binder: 18182-E10 (scFv, scFv in bacterial lysate, detected with anti-Flag M2) scFv: EVQLLESGGGLVQPGGSLRLSCAASGFTFSSHAMSWVRQAPGQGLEWVSSISGSGGGTYYAASVKGRFTISRDNSKNTLYLQMNSLRAEDTAVYYCATGKGVHLNFDYWGQGTLVTVSSGGGGSGGGGSGGGGSELALTQPASASVAPGQTARITCGGNNIGSKSVHWHQQKPGQAPVLVVYDDNDRPSGIPERFSGSNSGNTATLTISRVEAGDEADFYCQVWDSSSDHVVFGGGTKLTVL
Signal/background: 0.9
//
Binder: 18081-H11 (scFv, scFv in bacterial lysate, detected with anti-Flag M2) scFv: EVQLLESGPALVKPTQTLTLTCTFSGFSFTTHKMGVDWIRQPPGKALEWLALIYWNDDKRYSPSLQSRLTITKDTSKNQVVLTMTNMDPVDTATYYCAYRRYNWNYENWFDPWGQGTLVTVSSGGGGSGGGGSGGGGSELQMTQSPSSLSASVGDRVTITCQASQDISNYLNWYQQKPGKAPKLLIYAASSLQSGVPSRFSGSGSGTDFTLTISSLQPEDFATYYCQQSYTTPFTFGPGTKVEIK
Signal/background: 1
//
Binder: 18182-G2 (scFv, scFv in bacterial lysate, detected with anti-Flag M2) scFv: EVQLLESGGGLVQPGGSLRLSCAASGFTFSSHAMSWVRQAPGKGLEWVSAISGSGGGTYNADSVKGRFTISRDNSKNTLYLQMNSLRAEDTAAYYCVTGKGVHLGFDYWGQGTLVTVSSGGGGSGGGGSGGGGSELVLTQPPSVSVAPGQTARITCGGNNIGSKSVHWYQQKPGQAPVMVVYDDNDRPSGIPERFSGSNSGNTATLTISRVEAGDEADYYCQVWDSSSDHVIFGGGTKLTVL
Signal/background: 1.1
//
Binder: 18179-G12 (scFv, scFv in bacterial lysate, detected with anti-Flag M2) scFv: EVQLLESGAEVKKPGASVKVSCKASGYTFTRNGLSWVRQAPGQGLEWMGWISGYNGDTNYAQKLQGRGTMTTDTSTSTAYMELRSLRSDDTAVYYCARGRATFDYWGQGTLVTVSSGGGGSGGGGSGGGGSELVMTQSPSSLSASVGDRVTITCRASQGISNYLAWYQQKPGKVPKLLISAASTLQSGVPSRFSGSGSGTDFTLTISSLQPEDVATYYCQKYNSAPFTFGPGTKLEIK
Signal/background: 1.1

Note down Signal/background recorded for 18182-E6 (scFv, scFv in bacterial lysate, detected with anti-Flag M2) scFv: EVQLLESGGGLVQPGGSLRLSCAASGFTFSSYAMSWVRQAPGKGLEWVSAISGSGGGTYYADSVKGRFTISRDNSKNTLYLQMNSLRAEDTAVYYCATGKGVHLNFDYWGQGTLVTVSSGGGGSGGGGSGGGGSELVLTQPSSVSVAPGQTARITCGGNNIGSKSVHWYQQKPGQAPVLVVYDDNDRPSGIPERFSGSNFGNTATLIISRVAAGDEADYYCQVWDSSSDHVVFGGGTKLTVL 0.9

Note down Signal/background recorded for 18179-H7 (scFv, scFv in bacterial lysate, detected with anti-Flag M2) scFv: EVQLLESGGGLVQPGGSLRLSCAASGFTFSNAWMSWVRQAPGKGLEWVGRIKSKTYGGTTDYAAPVKGRFTISRDDSKNTLYLQMNSLKTEDTAVYYCTTPSYSGSYYNYFSVMDVWGQGTTVTVSSGGGGSGGGGSGGGGSELQMTQSPSSLSASVGDRVTITCRTSQSISSYLNWFQQKPGKAPKLLIFAASSLQSGVPSRFSGSGSGTDFTLTISSLQPEDFATYYCQQSYSSPFTFGPGTKVEIK 1

Note down Signal/background recorded for 18181-E2 (scFv, scFv in bacterial lysate, detected with anti-Flag M2) scFv: EVQLLESGPGLVKPSQTLSLTCTVSGDSISSNPYYWSWIRQHPGKGLEWIGYISHSGSTYYNPSLKSRVTISVDTSKNQFSLNLTSVTAADTAVYYCARDRLWFGVLNYYYGMDVWGLGTTVTVSSGGGGSGGGGSGGGGSELVMTQSPLSLPVTPGEPASISCRSSQSLLHSSGYNYLDWYLQKPGQSPQLLIYLGSNRASGVPDRFSGSGSGTDFTLKISKVEAEDVGVYYCMQALQTPRTFGQGTKVDIK 1

Note down Signal/background recorded for 18179-B12 (scFv, scFv in bacterial lysate, detected with anti-Flag M2) scFv: EVQLLESGGGLVQPGGSLRLSCAASGFTFSNAWMSWVRQAPGKGLEWVGRIKGNTYGGTTDYAAPVKGRFTISRDDSKNTLFLQMNSLKTEDTAVYYCTTPSNSGSYYNYFSVMDVWGQGTTVTVSSGGGGSGGGGSGGGGSELVMTQSPSSLSASVGDRVTITCRTSQSISSYLNWFQQKPGKAPKLLIFAASSLQSGVPSRFSGSGSGTDFTLTISSLQPEDFATYYCQQTYSMPFTFGPGTKVEIK 1
